- assay.remarks: Oral bioavailability in Sprague-Dawley rat at 150 mg/kg by LC-MS/MS analysis
- Type: ADME, organism-based
- experimental.conditions: in vivo
property.label: bioavailability (%)
Give bare numbers, in %.

• C[C@H]1CCC[C@]2(C)C[C@H]3OC(=O)[C@@H](CN(C)C)[C@H]3[C@@H]3O[C@@]132.O=C(O)/C=C/C(=O)O = 75

In the following, a different molecule is considered.
Which bioavailability value belongs to `CN(C)C[C@@H]1C(=O)O[C@@H]2C[C@@]3(C)CC[C@@H](O)[C@]4(CO4)[C@@H]3C[C@H]12.O=C(O)/C=C/C(=O)O` ?
78

====

- target.or.system: Transforming growth factor beta-1 proprotein/Mothers against decapentaplegic homolog 3 (Mus musculus) (UniProt P04202+Q8BUN5)
- Sequence (P04202 279-390 limits assumed): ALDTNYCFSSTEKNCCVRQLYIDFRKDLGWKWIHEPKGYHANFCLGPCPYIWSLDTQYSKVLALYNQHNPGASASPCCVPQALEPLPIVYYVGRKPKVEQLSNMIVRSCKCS
- Sequence (Q8BUN5 2-425 partner limits assumed): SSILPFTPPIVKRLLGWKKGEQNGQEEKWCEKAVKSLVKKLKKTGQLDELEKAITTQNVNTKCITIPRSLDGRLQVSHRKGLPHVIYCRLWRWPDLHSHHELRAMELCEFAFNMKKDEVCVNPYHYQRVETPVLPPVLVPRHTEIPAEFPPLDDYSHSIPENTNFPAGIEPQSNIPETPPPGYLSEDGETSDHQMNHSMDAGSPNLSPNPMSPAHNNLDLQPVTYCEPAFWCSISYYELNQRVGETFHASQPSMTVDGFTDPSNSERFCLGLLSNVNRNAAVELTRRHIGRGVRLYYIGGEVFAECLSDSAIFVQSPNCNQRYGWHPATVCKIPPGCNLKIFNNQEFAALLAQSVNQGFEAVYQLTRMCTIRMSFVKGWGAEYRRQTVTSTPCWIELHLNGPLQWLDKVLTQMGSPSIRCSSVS
- assay.remarks: Inhibition of TGF-beta1/smad3 signaling pathway in mouse NIH/3T3 cells at 10 uM after 18 hrs by CAGA-luciferase reporter gene assay relative to control
- Assay type: cell-based
property.label: inhibition (%)
Numbers only, in %.

- C=C1C(=O)O[C@@H]2C[C@@]3(C)CC[C@@H](OC(=O)C4CC4)C(=C)[C@@H]3C[C@H]12: 4.63
- C=C1C(=O)O[C@@H]2C[C@@]3(C)CC[C@@H](O)C(=C)[C@@H]3C[C@H]12: 61.9

Provide reported inhibition for each item, in the same order as listed.
1. C=C1C(=O)O[C@@H]2C[C@@]3(C)CC[C@@H](OC(=O)C4=CCCCC4)[C@]4(CO4)[C@@H]3C[C@H]12
2. C=C1C(=O)O[C@@H]2C[C@@]3(C)CC[C@@H](O)[C@]4(CO4)[C@@H]3C[C@H]12

1: 34.8; 2: 46
